Provenance of the data: patent US10800784B2

target: human PDHK1 (hPDHK1) (Homo sapiens (Human), UniProt Q15118); assay: Inhibitory action of PDHK1 activity in vitro (residual PDH activity after PDHK reaction); assay type: biochemical; settings: at 3 nmol/L; shown when IC50 value could not be calculated; read-out: hPDHK1 inhibitory rate at the lowest concentration of the test compound
Sequence (Q15118 29-436): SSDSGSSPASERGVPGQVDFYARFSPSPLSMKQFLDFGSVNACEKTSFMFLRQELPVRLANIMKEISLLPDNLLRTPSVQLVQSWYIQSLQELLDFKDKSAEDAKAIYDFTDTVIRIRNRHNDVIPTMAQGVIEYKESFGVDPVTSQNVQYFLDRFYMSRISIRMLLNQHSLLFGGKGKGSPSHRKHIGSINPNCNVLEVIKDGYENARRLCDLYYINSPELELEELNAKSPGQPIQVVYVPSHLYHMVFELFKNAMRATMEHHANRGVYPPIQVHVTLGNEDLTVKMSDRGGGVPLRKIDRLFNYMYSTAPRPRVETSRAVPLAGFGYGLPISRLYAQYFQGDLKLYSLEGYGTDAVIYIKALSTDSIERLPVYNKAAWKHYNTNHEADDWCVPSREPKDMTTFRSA
Entries and their inhibition at 0.003 µM values follow.
Provide the reading as a plain figure in %.

Recorded inhibition at 0.003 µM, per entry:
[
  {
    "compound": "C[C@H]1CN(C(=O)c2ccc(C#N)c(-n3cc(Cl)cn3)c2)Cc2cnc([C@@](C)(O)C(F)(F)F)n21 [Example 85]",
    "observation-type": "inhibition at 0.003 µM",
    "assay-result": 49
  },
  {
    "compound": "C[C@H]1CN(C(=O)[C@@H]2c3ccccc3CCN2C)Cc2onc([C@@](C)(O)C(F)(F)F)c21 [Example 106]",
    "observation-type": "inhibition at 0.003 µM",
    "assay-result": 61
  },
  {
    "compound": "C[C@H]1CN(C(=O)c2cc(C3CC3)nn2C)Cc2cnc([C@@](C)(O)C(F)(F)F)n21 [Example 14]",
    "observation-type": "inhibition at 0.003 µM",
    "assay-result": 68
  }
]

Then this compound:
Prompt line: Give inhibition at 0.003 µM for this entry on human PDHK1 (hPDHK1) (Homo sapiens (Human), UniProt Q15118): C[C@H]1CN(C(=O)c2n[nH]c3c2CCC(C)(C)C3)Cc2onc([C@@](C)(O)C(F)(F)F)c21 [Example 103]
Response line: 67

====

molecular target: human PDHK2 (hPDHK2) (Homo sapiens (Human), UniProt Q15119); test: Inhibitory action of PDHK2 activity in vitro (residual PDH activity after PDHK reaction); details: PDH/hPDHK2 complex solution, PDHK reaction at room temperature for 45 min, NADH absorbance at 340 nm; read-out: kPDK2 IC50
observation-type: pIC50
Schema: pIC50 number; meaning minus log10 of the concentration expressed in molar units.

Reference set (3 entries):
[
  {
    "smiles-data": "C[C@H]1CN(C(=O)c2ccc(C#N)c(C3CC3)c2)Cc2cnc([C@@](C)(O)C(F)(F)F)n21",
    "target": "human PDHK2 (hPDHK2) (Homo sapiens (Human), UniProt Q15119)",
    "assay-result": 8.00
  },
  {
    "smiles-data": "C[C@H]1CN(C(=O)c2ccc(F)c(-c3ncc(F)cc3C#N)c2)Cc2cnc([C@@](C)(O)C(F)(F)F)n21",
    "target": "human PDHK2 (hPDHK2) (Homo sapiens (Human), UniProt Q15119)",
    "assay-result": 8.10
  },
  {
    "smiles-data": "C[C@H]1CN(C(=O)c2cnn(-c3ccc(F)cc3)c2C(F)(F)F)Cc2cnc([C@@](C)(O)C(F)(F)F)n21",
    "target": "human PDHK2 (hPDHK2) (Homo sapiens (Human), UniProt Q15119)",
    "assay-result": 8.15
  }
]

Prompt line: Assign pIC50 to the following record: `C[C@H]1CN(C(=O)c2cnc(C3CC3)nc2)Cc2cnc([C@@](C)(O)C(F)(F)F)n21`
Response line: 7.62

====

Catalogue of IC50 readings, one per entry.
Target: human PDHK2 (hPDHK2) (Homo sapiens (Human), UniProt Q15119)
Test: Inhibitory action of PDHK2 activity in vitro (residual PDH activity after PDHK reaction)
Conditions: PDH/hPDHK2 complex solution, PDHK reaction at room temperature for 45 min, NADH absorbance at 340 nm; read-out: kPDK2 IC50
Procedure: The inhibitory action of PDHK activity was assessed indirectly by measuring the residual PDH activity after PDHK reaction in the presence of a test compound. (Inhibitory Action of PDHK2 Activity) […] Then, 10 μL of substrates (5 mmol/L sodium pyruvate, 5 mmol/L Coenzyme A, 12 mmol/L NAD, 5 mmol/L thiamine pyrophosphate, diluted with assay buffer) were added. The mixture was incubated at room temperature for 90 min, and the residual PDH activity was measured. […]
Give just the numeric value; nM need not be written.

// known answers, use as guide
[
  {
    "smiles-data": "C[C@H]1CN(C(=O)c2ncncc2-c2ccc(F)cc2)Cc2cnc([C@@](C)(O)C(F)(F)F)n21",
    "target": "human PDHK2 (hPDHK2) (Homo sapiens (Human), UniProt Q15119)",
    "IC50 (nM)": 26
  },
  {
    "smiles-data": "C[C@H]1CN(C(=O)c2cc(-c3ccc(F)cc3)n[nH]2)Cc2cnc([C@@](C)(O)C(F)(F)F)n21",
    "target": "human PDHK2 (hPDHK2) (Homo sapiens (Human), UniProt Q15119)",
    "IC50 (nM)": 13
  },
  {
    "smiles-data": "C[C@H]1CN(C(=O)c2ccn(C3CC3)n2)Cc2onc([C@@](C)(O)C(F)(F)F)c21",
    "target": "human PDHK2 (hPDHK2) (Homo sapiens (Human), UniProt Q15119)",
    "IC50 (nM)": 13
  },
  {
    "smiles-data": "C[C@H]1CN(C(=O)c2cnc3ccc(F)cn23)Cc2cnc([C@@](C)(O)C(F)(F)F)n21",
    "target": "human PDHK2 (hPDHK2) (Homo sapiens (Human), UniProt Q15119)",
    "IC50 (nM)": 34
  },
  {
    "smiles-data": "C[C@H]1CN(C(=O)[C@H]2CCN(c3ccc(C#N)cn3)C2)Cc2cnc([C@@](C)(O)C(F)(F)F)n21",
    "target": "human PDHK2 (hPDHK2) (Homo sapiens (Human), UniProt Q15119)",
    "IC50 (nM)": 23
  },
  {
    "smiles-data": "C[C@H]1CN(C(=O)c2ccnc(N3CCC(F)(F)CC3)c2)Cc2cnc([C@@](C)(O)C(F)(F)F)n21",
    "target": "human PDHK2 (hPDHK2) (Homo sapiens (Human), UniProt Q15119)",
    "IC50 (nM)": 15
  }
]

Attention now shifts to the item below.
Prompt line: Name the recorded IC50 of the compound listed here: `Cc1nc(-c2ccc(C#N)cc2)oc1C(=O)N1Cc2cnc([C@@](C)(O)C(F)(F)F)n2[C@@H](C)C1`
Response line: 5
